Reference source for all entries: ChEMBL document CHEMBL5291721

The reader will find AC50 measurements below, all made with Glutamate receptor ionotropic, NMDA 1 (Rattus norvegicus).

# compound, AC50
measured = [
    ("COCCCOc1ccnc(C[S+]([O-])c2nc3ccccc3[nH]2)c1C (configuration not stated)", "> 10 µM"),
    ("COCCOC(=O)C1=C(C)NC(C)=C(C(=O)OC/C=C/c2ccccc2)C1c1cccc([N+](=O)[O-])c1 (configuration not stated)", "> 30 µM"),
    ("Cn1c(=O)c2[nH]cnc2n(C)c1=O", "> 10 µM"),
    ("Nc1nc(O)c2ncn(COC(CO)CO)c2n1", "> 30 µM"),
]

Kindly note: Glutamate receptor ionotropic, NMDA 1 (Rattus norvegicus), `CC(C)N(CCCCOCC(=O)NS(C)(=O)=O)c1cnc(-c2ccccc2)c(-c2ccccc2)n1` , AC50 value reported: > 30 µM

Kindly note: Glutamate receptor ionotropic, NMDA 1 (Rattus norvegicus), `O=C(O)c1cc(O)c2c3nc4ccccc4oc-3cc(=O)c2n1` , AC50 value reported: > 30 µM

Kindly note: Glutamate receptor ionotropic, NMDA 1 (Rattus norvegicus), `Cc1ccc2c(-c3ccccc3)nc(=O)n(C(C)C)c2c1` , AC50 value reported: > 30 µM

Kindly note: Glutamate receptor ionotropic, NMDA 1 (Rattus norvegicus), `CCn1cc(C(=O)O)c(=O)c2cc(F)c(N3CCNCC3)nc21` , AC50 value reported: > 10 µM

Kindly note: Glutamate receptor ionotropic, NMDA 1 (Rattus norvegicus), `[H]/N=C(/N)N[C@H]1[C@H](O)[C@@H](O)[C@H](O[C@@H]2O[C@@H](C)[C@](O)(C=O)[C@H]2O[C@@H]2O[C@@H](CO)[C@H](O)[C@@H](O)[C@@H]2NC)[C@@H](N/C(N)=N\[H])[C@@H]1O` , AC50 value reported: > 30 µM

---

Biological target: 5-hydroxytryptamine receptor 2B (Homo sapiens, UniProt P41595); further: assay procedure not described here
Sequence (P41595 whole entry): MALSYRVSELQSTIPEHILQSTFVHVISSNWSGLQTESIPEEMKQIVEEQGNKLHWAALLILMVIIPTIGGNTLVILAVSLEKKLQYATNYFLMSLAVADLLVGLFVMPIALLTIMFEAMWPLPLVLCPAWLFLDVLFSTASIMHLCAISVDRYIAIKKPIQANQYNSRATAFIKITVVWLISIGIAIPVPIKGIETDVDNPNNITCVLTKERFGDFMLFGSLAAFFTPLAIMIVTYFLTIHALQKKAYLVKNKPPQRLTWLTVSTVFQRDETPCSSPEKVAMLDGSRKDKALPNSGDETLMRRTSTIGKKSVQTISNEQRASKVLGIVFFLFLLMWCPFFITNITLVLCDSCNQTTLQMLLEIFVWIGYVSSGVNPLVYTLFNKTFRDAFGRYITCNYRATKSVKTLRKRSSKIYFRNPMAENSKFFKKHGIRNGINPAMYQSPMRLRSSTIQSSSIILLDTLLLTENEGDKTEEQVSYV
Assay type: functional, cell-based
reported.property: AC50

Reference set (10 entries):
# compound, AC50
rows = [
    ("CCCC(C)(COC(N)=O)COC(=O)NC(C)C (configuration not stated) [CARISOPRODOL]", "> 10 µM"),
    ("O=C1Nc2ccc(Cl)cc2C(c2ccccc2)=NC1O (configuration not stated) [OXAZEPAM]", "> 10 µM"),
    ("CCN(CC)CCOC(=O)c1ccc(N)cc1Cl [CHLOROPROCAINE]", "> 30 µM"),
    ("CN1[C@@H]2CC[C@H]1C[C@@H](OC(=O)c1c[nH]c3ccccc13)C2 [TROPISETRON]", "15 µM"),
    ("NS(=O)(=O)c1cc(C(=O)O)cc(N2CCCC2)c1Oc1ccccc1 [PIRETANIDE]", "> 30 µM"),
    ("CC[C@H]1OC(=O)[C@H](C)[C@@H](O[C@H]2C[C@@](C)(OC)[C@@H](O)[C@H](C)O2)[C@H](C)[C@@H](O[C@@H]2O[C@H](C)C[C@H](N(C)C)[C@H]2O)[C@](C)(OC)C[C@@H](C)C(=O)[C@H](C)[C@@H](O)[C@]1(C)O [CLARITHROMYCIN]", "> 30 µM"),
    ("OCCN1CCN(CC/C=C2/c3ccccc3Sc3ccc(Cl)cc32)CC1 [ZUCLOPENTHIXOL]", "0.92 µM"),
    ("Clc1ccc2c(c1)C(c1ccccc1)=NCc1nncn1-2 [ESTAZOLAM]", "> 10 µM"),
    ("O=C(CCCN1CCC(n2c(O)nc3ccccc32)CC1)c1ccc(F)cc1 [BENPERIDOL]", "6.59 µM"),
    ("COCCCOc1ccnc(C[S+]([O-])c2nc3ccccc3[nH]2)c1C (configuration not stated) [RABEPRAZOLE]", "12 µM"),
]

Entry `N#Cc1ccccc1-c1cc(-c2ccccn2)cn(-c2ccccc2)c1=O` ; AC50 = > 30 µM

Entry COCCOC(=O)C1=C(C)NC(C)=C(C(=O)OC/C=C/c2ccccc2)C1c1cccc([N+](=O)[O-])c1 (configuration not stated) [CILNIDIPINE] ; AC50 = > 30 µM

Entry CNCCCC1c2ccccc2C=Cc2ccccc21 [PROTRIPTYLINE] ; AC50 = 3.8 µM

Entry CN1c2ccccc2C(NCCCCCCC(=O)O)c2ccc(Cl)cc2S1(=O)=O (configuration not stated) [TIANEPTINE] ; AC50 = > 30 µM

Entry CC(NCCc1ccc(O)cc1)C(O)c1ccc(O)cc1 (configuration not stated) [RITODRINE] ; AC50 = > 30 µM

---

Biological target: Gamma-aminobutyric acid receptor subunit alpha-1/alpha-2/beta-2/gamma-2 (Homo sapiens, UniProt P14867+P18507+P47869+P47870); further: assay procedure not described here
Sequence (P14867 whole entry): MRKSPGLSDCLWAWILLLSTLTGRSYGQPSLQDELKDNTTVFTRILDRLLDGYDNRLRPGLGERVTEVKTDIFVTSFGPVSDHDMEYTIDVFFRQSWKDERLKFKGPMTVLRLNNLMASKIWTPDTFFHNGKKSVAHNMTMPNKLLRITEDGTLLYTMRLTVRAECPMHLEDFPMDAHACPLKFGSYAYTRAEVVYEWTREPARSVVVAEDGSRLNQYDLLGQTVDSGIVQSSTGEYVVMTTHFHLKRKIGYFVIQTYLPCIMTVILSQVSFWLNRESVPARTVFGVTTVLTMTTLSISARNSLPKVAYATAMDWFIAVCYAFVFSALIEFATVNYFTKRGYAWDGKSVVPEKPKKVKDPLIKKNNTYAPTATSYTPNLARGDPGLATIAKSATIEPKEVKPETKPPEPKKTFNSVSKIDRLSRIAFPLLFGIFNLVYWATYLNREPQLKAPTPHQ
Sequence (P47870 whole entry): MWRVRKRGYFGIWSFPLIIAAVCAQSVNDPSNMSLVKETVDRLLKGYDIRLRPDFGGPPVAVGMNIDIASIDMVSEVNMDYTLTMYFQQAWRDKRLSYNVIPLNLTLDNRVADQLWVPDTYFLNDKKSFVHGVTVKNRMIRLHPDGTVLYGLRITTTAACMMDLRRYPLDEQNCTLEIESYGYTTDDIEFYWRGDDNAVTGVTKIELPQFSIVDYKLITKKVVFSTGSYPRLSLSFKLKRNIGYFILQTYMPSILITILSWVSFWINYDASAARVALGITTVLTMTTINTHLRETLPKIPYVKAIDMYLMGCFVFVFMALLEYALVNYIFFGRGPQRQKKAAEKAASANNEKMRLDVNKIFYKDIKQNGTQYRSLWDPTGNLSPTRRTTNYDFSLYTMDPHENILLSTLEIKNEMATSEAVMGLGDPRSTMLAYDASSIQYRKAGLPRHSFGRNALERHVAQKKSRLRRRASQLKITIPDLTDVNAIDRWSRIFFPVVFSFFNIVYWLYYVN
Sequence (P18507 whole entry): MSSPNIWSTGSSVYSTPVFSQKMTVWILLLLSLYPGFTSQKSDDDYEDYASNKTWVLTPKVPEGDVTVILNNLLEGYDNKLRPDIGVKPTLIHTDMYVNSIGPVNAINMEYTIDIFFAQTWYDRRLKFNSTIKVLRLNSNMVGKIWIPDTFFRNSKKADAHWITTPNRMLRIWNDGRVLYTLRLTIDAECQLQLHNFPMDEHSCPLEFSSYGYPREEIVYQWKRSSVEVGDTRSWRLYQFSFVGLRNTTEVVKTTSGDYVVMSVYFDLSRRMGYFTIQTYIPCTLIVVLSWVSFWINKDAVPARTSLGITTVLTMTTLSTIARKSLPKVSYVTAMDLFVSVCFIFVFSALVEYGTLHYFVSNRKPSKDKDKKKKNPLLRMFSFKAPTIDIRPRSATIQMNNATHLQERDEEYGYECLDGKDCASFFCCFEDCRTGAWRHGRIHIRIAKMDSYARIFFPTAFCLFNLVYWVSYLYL
Sequence (P47869 whole entry): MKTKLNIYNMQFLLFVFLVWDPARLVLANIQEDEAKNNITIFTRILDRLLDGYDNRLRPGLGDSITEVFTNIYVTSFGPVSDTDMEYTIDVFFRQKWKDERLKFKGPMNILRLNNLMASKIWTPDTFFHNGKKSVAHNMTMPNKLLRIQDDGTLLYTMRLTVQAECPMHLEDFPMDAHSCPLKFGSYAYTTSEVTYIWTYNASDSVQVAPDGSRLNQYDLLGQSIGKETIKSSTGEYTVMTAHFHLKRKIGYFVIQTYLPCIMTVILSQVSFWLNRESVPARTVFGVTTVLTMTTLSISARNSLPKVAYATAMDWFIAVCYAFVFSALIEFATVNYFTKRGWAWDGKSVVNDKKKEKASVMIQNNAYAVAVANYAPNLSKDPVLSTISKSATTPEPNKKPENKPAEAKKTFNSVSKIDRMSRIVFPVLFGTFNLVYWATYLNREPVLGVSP
Type: functional, cell-based
reported.property: AC50

Reference set (2 entries):
# compound, reported.property, result.value
data = [
    ("CC(=N)N1CC[C@H](SC2=C(C(=O)O)N3C(=O)[C@H]([C@@H](C)O)[C@H]3C2)C1", "AC50", "> 2400 µM"),
    ("COc1cc2c(Nc3ccc(Br)cc3F)ncnc2cc1OCC1CCN(C)CC1 [VANDETANIB]", "AC50", "> 30 µM"),
]

Entry CCOc1cc(CC(=O)N[C@@H](CC(C)C)c2ccccc2N2CCCCC2)ccc1C(=O)O [REPAGLINIDE] ; AC50 = > 30 µM

Entry Cc1ccc2c(-c3ccccc3)nc(=O)n(C(C)C)c2c1 [PROQUAZONE] ; AC50 = > 30 µM

Entry O=C(O)c1ccccc1OP(=O)(O)O [FOSFOSAL] ; AC50 = > 30 µM

---

Quick reference: AC50 of the listed items.
Target: UniProt P06401
Sequence (P06401 whole entry): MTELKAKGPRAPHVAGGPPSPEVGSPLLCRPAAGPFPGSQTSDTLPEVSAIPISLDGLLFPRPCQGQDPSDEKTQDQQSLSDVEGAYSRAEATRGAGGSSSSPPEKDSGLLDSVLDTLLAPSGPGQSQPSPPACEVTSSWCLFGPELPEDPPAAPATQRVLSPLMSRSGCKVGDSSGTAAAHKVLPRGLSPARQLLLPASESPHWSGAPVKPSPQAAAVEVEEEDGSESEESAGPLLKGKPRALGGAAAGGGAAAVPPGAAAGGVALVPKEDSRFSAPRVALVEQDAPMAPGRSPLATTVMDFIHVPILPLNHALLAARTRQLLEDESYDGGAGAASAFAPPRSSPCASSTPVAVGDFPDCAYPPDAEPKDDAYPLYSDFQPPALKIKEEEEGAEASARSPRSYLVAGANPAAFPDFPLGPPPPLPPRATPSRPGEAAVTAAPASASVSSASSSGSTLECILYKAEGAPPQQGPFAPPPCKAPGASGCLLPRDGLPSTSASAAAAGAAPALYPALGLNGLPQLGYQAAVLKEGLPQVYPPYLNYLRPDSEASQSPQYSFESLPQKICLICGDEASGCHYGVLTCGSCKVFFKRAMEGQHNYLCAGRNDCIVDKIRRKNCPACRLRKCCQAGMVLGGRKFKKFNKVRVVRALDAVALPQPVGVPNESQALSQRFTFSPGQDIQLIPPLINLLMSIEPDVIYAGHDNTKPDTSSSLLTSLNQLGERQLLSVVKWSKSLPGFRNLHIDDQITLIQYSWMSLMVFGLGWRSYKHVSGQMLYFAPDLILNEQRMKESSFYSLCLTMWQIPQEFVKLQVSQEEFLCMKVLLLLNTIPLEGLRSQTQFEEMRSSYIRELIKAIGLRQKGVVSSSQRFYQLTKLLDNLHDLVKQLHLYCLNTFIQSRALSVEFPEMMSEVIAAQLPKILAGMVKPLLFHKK
Format: functional

# compound, AC50
measured = [
    ("CC1(C)C(/C=C/C=C/C=C/C=C2\\N(CCCCS(=O)(=O)O)c3ccc4ccccc4c3C2(C)C)=[N+](CCCCS(=O)(=O)[O-])c2ccc3ccccc3c21 [INDOCYANINE GREEN ACID FORM]", "3.4 µM"),
    ("Cc1ccc(=O)n(-c2ccccc2)c1", "> 30 µM"),
]

Entry `CC(C)c1cc2c(cc1S(=O)(=O)O)[C@@]1(C)CCC[C@@](C)(C(=O)O)[C@@H]1CC2` ; AC50 = > 30 µM

Entry `CCCOC(C(=O)OC1CCN(C)CC1)(c1ccccc1)c1ccccc1` ; AC50 = > 30 µM

Entry CCOc1cc(CC(=O)N[C@@H](CC(C)C)c2ccccc2N2CCCCC2)ccc1C(=O)O [REPAGLINIDE] ; AC50 = > 30 µM

Entry `CCCCCCNC(=O)n1cc(F)c(=O)[nH]c1=O` ; AC50 = > 30 µM

Entry NS(=O)(=O)c1cc2c(cc1C(F)(F)F)NC(Cc1ccccc1)NS2(=O)=O (stereo not drawn) [BENDROFLUMETHIAZIDE] ; AC50 = > 10 µM

Entry `CNCCC=C1c2ccccc2CCc2ccccc21` ; AC50 = > 30 µM

---

Target: Muscarinic acetylcholine receptor M2 (Homo sapiens, UniProt P08172); further: assay procedure not described here
Sequence (P08172 whole entry): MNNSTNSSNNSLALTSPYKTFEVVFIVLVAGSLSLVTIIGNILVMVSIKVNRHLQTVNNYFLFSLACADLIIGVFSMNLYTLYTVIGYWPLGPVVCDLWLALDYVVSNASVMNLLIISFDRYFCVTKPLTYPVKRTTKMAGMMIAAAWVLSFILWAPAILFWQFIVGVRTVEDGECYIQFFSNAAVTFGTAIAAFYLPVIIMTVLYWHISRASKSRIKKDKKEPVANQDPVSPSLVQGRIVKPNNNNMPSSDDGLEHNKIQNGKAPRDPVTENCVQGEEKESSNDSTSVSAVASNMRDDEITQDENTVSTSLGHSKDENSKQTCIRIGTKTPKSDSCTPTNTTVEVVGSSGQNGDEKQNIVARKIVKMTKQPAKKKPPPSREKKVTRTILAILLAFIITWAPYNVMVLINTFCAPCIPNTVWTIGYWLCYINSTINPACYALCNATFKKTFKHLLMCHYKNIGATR
Type: functional, cell-based
Quick reference: AC50 of the listed items.

# molecule, experimental.target, result.value
records = [
    ("NC(=O)CCC/N=C(\\c1ccc(Cl)cc1)c1cc(F)ccc1O [PROGABIDE]", "Muscarinic acetylcholine receptor M2 (Homo sapiens, UniProt P08172)", "> 10 µM"),
]

Entry CC(=O)/N=c1/sc(S(N)(=O)=O)nn1C [METHAZOLAMIDE] ; AC50 = > 10 µM

Entry CCCNC(C)C(=O)Nc1ccccc1C (stereo not given) [PRILOCAINE] ; AC50 = > 30 µM

Entry Cc1ccc2c(-c3ccccc3)nc(=O)n(C(C)C)c2c1 [PROQUAZONE] ; AC50 = > 30 µM

Entry Nc1ccc(C(=O)O)c(O)c1 [AMINOSALICYLIC ACID] ; AC50 = > 30 µM

---

Molecular target: Alpha-1A adrenergic receptor (Homo sapiens); further: assay procedure not described here
Sequence (P35348 whole entry): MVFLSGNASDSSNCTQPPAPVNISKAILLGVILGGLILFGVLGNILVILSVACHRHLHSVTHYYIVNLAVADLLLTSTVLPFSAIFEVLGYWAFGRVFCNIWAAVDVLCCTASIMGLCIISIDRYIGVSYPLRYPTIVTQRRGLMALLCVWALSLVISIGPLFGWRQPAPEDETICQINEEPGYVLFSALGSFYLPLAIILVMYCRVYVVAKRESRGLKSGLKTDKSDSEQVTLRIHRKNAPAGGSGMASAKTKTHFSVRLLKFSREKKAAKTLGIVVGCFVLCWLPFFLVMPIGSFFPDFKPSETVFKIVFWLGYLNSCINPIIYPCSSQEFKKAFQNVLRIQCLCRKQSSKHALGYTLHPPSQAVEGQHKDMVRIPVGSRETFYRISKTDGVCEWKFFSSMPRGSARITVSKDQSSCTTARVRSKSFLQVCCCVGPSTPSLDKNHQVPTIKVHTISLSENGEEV
Assay type: functional, cell-based
Quick reference: AC50 of the listed items.

Reference set (5 entries):
# molecule, AC50
rows = [
    ("CCOc1cc(CC(=O)N[C@@H](CC(C)C)c2ccccc2N2CCCCC2)ccc1C(=O)O [REPAGLINIDE]", "> 30 µM"),
    ("O=C(CCCN1CCC(n2c(O)nc3ccccc32)CC1)c1ccc(F)cc1", "0.0706 µM"),
    ("COc1ccc(Cc2nccc3cc(OC)c(OC)cc23)cc1OC", "> 30 µM"),
    ("O=C(O)c1cc(O)c2c3nc4ccccc4oc-3cc(=O)c2n1", "> 30 µM"),
    ("Cc1ccc2c(-c3ccccc3)nc(=O)n(C(C)C)c2c1", "> 30 µM"),
]

Kindly note: Alpha-1A adrenergic receptor (Homo sapiens), NC(=O)CCC/N=C(\c1ccc(Cl)cc1)c1cc(F)ccc1O [PROGABIDE] , AC50 value reported: > 30 µM

Kindly note: Alpha-1A adrenergic receptor (Homo sapiens), `Nc1nc(O)c2ncn(COC(CO)CO)c2n1` , AC50 value reported: > 30 µM

Kindly note: Alpha-1A adrenergic receptor (Homo sapiens), `C#C[C@]1(O)CC[C@H]2[C@@H]3CCC4=CC(=O)CCC4=C3C=C[C@@]21CC` , AC50 value reported: > 30 µM

Kindly note: Alpha-1A adrenergic receptor (Homo sapiens), CC(NCCc1ccc(O)cc1)C(O)c1ccc(O)cc1 (centres undefined) , AC50 value reported: 2 µM
